In this section, each of the compounds is paired with its reported activity coefficient.
ASSAY_PROCEDURE: activity coefficient (dimensionless); of the first substance listed, at infinite dilution; xn = mol fraction of the nth substance listed
EXPERIMENTAL_PARAMETERS: 298 K; 238 kPa; Liquid; Chromatography; x1 = 0

COMPOUND	activity coefficient
C=CC1CC=CCC1 (stereo not drawn) [4-ethenylcyclohexene] + COCCO	8.6
Cc1cccc(C)c1 [1,3-dimethylbenzene] + CC(O)CO	28.4
Clc1ccccc1 [chlorobenzene] + COCCO	2.9

* * *

ASSAY_PROCEDURE: activity coefficient (dimensionless); of the first substance listed, at infinite dilution; xn = mol fraction of the nth substance listed
EXPERIMENTAL_PARAMETERS: 298 K; 238 kPa; Liquid; Chromatography; x1 = 0
Each entry gets label 0 if its activity coefficient stays under 20, and label 1 if its activity coefficient is 20 or above.

COMPOUND	CLASS_LABEL
c1ccc2ccccc2c1 [naphthalene] + CC(O)CO	label 1
Cc1ccc(C(C)C)cc1 [1-(1-methylethyl)-4-methylbenzene] + COCCO	label 0
CCCCCCCC [octane] + COCCO	label 1
Cc1cccc(C)c1 [1,3-dimethylbenzene] + COCCO	label 0
CCCCCCC [heptane] + COCCO	label 1
Cc1ccccc1 [toluene] + CC(O)CO	label 0
CCCCCC [hexane] + COCCO	label 0
